Target: RAF proto-oncogene serine/threonine-protein kinase (Homo sapiens)
Sequence (P04049 whole entry): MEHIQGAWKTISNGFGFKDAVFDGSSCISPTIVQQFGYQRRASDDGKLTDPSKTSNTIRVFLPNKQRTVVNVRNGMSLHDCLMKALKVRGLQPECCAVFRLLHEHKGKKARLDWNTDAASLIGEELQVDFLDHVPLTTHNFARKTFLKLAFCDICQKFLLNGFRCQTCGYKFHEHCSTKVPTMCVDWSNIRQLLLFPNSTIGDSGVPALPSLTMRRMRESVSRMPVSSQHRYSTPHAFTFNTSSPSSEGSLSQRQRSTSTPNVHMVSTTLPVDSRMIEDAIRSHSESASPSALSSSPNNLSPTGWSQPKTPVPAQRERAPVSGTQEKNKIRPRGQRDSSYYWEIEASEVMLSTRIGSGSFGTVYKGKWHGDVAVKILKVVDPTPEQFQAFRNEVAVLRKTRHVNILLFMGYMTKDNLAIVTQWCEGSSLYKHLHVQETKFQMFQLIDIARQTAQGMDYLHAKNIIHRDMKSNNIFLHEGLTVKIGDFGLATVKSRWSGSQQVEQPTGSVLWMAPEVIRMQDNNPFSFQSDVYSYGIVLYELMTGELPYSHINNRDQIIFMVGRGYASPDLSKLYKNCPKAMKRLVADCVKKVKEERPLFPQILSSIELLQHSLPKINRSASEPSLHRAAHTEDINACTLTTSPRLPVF
Test: Inhibition of c-Raf (unknown origin)

- structure.smiles: "CC(C)[C@@](C)(O)[C@@H]1CN(c2nc(-c3n[nH]c4ncccc34)c(F)cc2Cl)CCN1"
  target.entity: "RAF proto-oncogene serine/threonine-protein kinase (Homo sapiens)"
  Ki: "> 1 µM"

* * *

Biological target: Tyrosine-protein kinase ITK/TSK (Homo sapiens, UniProt Q08881)
Sequence (Q08881 whole entry): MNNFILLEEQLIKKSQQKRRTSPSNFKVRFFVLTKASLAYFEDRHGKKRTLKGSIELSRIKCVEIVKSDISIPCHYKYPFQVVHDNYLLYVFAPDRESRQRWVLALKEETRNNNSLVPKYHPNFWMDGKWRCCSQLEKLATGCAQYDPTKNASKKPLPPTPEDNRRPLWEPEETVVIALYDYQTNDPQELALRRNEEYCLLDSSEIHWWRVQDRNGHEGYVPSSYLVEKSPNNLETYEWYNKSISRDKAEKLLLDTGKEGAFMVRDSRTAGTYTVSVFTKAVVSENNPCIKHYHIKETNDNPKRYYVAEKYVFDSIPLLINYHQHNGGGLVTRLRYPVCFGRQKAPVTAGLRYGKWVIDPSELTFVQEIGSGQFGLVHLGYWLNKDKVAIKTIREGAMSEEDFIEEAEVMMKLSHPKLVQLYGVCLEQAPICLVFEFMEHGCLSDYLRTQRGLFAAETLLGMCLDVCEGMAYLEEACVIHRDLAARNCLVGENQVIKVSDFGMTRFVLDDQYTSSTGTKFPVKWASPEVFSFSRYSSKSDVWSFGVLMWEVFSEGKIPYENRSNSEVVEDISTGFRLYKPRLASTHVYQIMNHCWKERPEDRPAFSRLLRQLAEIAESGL
measurement.label: Ki

- structure.smiles: "CC(C)[C@@](C)(O)[C@@H]1CN(c2nc(-c3n[nH]c4ncccc34)c(F)cc2Cl)CCN1"
  measurement.label: "Ki"
  measured.value: "> 1 µM"

* * *

Assay: Clearance in rat at 3 mg/kg, iv and 10 mg/kg, po
Assay type: ADME, organism-based
Details: in vivo
measurement.label: clearance (mL/min/kg)

- structure.smiles: "CC(C)[C@@](C)(O)[C@@H]1CN(c2nc(-c3n[nH]c4ncccc34)c(F)cc2Cl)CCN1"
  measured.value: 7
- structure.smiles: "CC(C)[C@@](C)(O)[C@@H]1CN(c2nc(-c3n[nH]c4ncccc34)c(F)cc2F)CCN1"
  measured.value: 9.5
- structure.smiles: "CC(C)[C@@](C)(O)[C@@H]1CN(c2ccc(F)c(-c3n[nH]c4ncccc34)n2)CCN1"
  measured.value: 39

* * *

Biological target: UniProt:P24723
Sequence (P24723 whole entry): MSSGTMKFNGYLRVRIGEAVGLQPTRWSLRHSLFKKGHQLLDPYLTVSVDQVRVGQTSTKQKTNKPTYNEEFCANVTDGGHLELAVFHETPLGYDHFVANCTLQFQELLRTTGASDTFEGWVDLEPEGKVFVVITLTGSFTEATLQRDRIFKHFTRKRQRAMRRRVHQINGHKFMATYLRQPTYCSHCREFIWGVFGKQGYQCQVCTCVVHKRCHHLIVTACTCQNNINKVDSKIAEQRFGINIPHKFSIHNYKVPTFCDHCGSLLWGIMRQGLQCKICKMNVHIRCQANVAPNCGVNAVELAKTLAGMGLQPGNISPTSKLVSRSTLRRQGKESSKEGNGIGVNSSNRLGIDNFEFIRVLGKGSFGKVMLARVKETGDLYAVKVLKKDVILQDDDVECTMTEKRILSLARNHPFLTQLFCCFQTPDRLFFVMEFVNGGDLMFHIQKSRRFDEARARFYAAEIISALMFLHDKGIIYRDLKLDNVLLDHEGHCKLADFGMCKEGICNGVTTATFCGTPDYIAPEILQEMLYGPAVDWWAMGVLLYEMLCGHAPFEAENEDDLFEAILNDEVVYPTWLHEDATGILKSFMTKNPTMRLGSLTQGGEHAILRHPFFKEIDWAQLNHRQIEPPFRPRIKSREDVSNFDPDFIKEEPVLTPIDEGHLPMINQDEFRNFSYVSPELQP
measurement.label: Ki (nM)

- structure.smiles: "CC(C)[C@@](C)(O)[C@@H]1CN(c2nc(-c3n[nH]c4ncccc34)c(F)cc2Cl)CCN1"
  scale.unit: "nM"
  measured.value: 3.5

* * *

Molecular target: Protein kinase C delta type (Homo sapiens)
Sequence (Q05655 whole entry): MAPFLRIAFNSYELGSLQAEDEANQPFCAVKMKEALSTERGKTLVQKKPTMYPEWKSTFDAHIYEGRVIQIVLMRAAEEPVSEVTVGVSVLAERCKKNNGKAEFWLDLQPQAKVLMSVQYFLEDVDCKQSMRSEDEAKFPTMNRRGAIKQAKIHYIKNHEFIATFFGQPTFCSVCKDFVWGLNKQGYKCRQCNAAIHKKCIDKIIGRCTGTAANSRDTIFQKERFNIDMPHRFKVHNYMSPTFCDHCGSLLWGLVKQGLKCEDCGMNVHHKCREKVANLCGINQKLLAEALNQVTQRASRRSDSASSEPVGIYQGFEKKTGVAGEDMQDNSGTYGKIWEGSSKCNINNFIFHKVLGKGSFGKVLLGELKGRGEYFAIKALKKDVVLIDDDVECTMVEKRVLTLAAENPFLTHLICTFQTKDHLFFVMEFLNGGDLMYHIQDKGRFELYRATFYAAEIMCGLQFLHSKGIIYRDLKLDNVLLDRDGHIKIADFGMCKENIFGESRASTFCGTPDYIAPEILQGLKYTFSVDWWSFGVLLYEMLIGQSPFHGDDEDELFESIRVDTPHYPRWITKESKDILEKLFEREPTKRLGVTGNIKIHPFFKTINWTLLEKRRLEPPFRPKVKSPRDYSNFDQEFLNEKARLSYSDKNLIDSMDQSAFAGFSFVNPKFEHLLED
Experiment: Inhibition of PKC delta (unknown origin) using ERMRPRKRQGSVRRRV as substrate after 15 mins by spectrophotometry in presence of ATP
Ki less than 500 nM is 1.0; Ki greater than or equal to 500 nM is 0.0.

- molecule: "CC(C)[C@](C)(O)[C@@H]1CN(c2ccc(F)c(-c3n[nH]c4ncccc34)n2)CCN1"
  target.entity: "Protein kinase C delta type (Homo sapiens)"
  classification: 1.0
- molecule: "CC(C)[C@@](C)(O)[C@@H]1CN(c2nc(-c3n[nH]c4ncccc34)c(F)cc2CO)CCN1"
  target.entity: "Protein kinase C delta type (Homo sapiens)"
  classification: 1.0
- molecule: "CC(C)[C@@](C)(O)[C@@H]1CN(c2nc(-c3n[nH]c4ncccc34)c(F)cc2O)CCN1"
  target.entity: "Protein kinase C delta type (Homo sapiens)"
  classification: 1.0
- molecule: "CC(C)C[C@H]1CN(c2ccc(F)c(-c3n[nH]c4ncccc34)n2)C[C@H](C)N1"
  target.entity: "Protein kinase C delta type (Homo sapiens)"
  classification: 0.0
- molecule: "CC(C)C[C@@H]1CN(c2ccc(F)c(-c3n[nH]c4ncccc34)n2)CCN1"
  target.entity: "Protein kinase C delta type (Homo sapiens)"
  classification: 0.0
- molecule: "CC(C)[C@@](C)(O)[C@@H]1CN(c2ccc(Cl)c(-c3n[nH]c4ncccc34)n2)CCN1"
  target.entity: "Protein kinase C delta type (Homo sapiens)"
  classification: 0.0
- molecule: "CC(C)[C@@](C)(O)[C@H]1CN(c2ccc(F)c(-c3n[nH]c4ncccc34)n2)CCN1"
  target.entity: "Protein kinase C delta type (Homo sapiens)"
  classification: 0.0
- molecule: "CC(C)[C@@](C)(O)[C@@H]1CN(c2ccc(F)c(-c3n[nH]c4ncccc34)n2)CCN1"
  target.entity: "Protein kinase C delta type (Homo sapiens)"
  classification: 1.0
- molecule: "CC(C)C[C@H]1CN(c2ccc(F)c(-c3n[nH]c4ncccc34)n2)C[C@@H](C)N1"
  target.entity: "Protein kinase C delta type (Homo sapiens)"
  classification: 1.0
- molecule: "CC(C)[C@@](C)(O)[C@@H]1CN(c2ccc(C(F)(F)F)c(-c3n[nH]c4ncccc34)n2)CCN1 (racemic)"
  target.entity: "Protein kinase C delta type (Homo sapiens)"
  classification: 0.0
- molecule: "CC(C)[C@](C)(O)[C@H]1CN(c2ccc(F)c(-c3n[nH]c4ncccc34)n2)CCN1"
  target.entity: "Protein kinase C delta type (Homo sapiens)"
  classification: 0.0
- molecule: "CC(C)[C@@](C)(O)[C@@H]1CN(c2nc(-c3n[nH]c4ncccc34)c(F)cc2F)CCN1"
  target.entity: "Protein kinase C delta type (Homo sapiens)"
  classification: 1.0
- molecule: "CC(C)[C@@](C)(O)[C@@H]1CN(c2nc(-c3n[nH]c4ncccc34)c(F)cc2Cl)CCN1"
  target.entity: "Protein kinase C delta type (Homo sapiens)"
  classification: 1.0
- molecule: "Fc1ccc(N2CCNCC2)nc1-c1n[nH]c2ncccc12"
  target.entity: "Protein kinase C delta type (Homo sapiens)"
  classification: 0.0
- molecule: "CC(C)C[C@H]1CN(c2ccc(F)c(-c3n[nH]c4ncccc34)n2)CCN1"
  target.entity: "Protein kinase C delta type (Homo sapiens)"
  classification: 1.0
